Reference source for all entries: patent US20110212968A1

Molecular target: human orexin-2 receptor (Homo sapiens, UniProt O43614)
Construct: expressed in transfected cells; host or cells: CHO (Chinese hamster ovary) cells, kept under G418 selection
Sequence (O43614 1-444): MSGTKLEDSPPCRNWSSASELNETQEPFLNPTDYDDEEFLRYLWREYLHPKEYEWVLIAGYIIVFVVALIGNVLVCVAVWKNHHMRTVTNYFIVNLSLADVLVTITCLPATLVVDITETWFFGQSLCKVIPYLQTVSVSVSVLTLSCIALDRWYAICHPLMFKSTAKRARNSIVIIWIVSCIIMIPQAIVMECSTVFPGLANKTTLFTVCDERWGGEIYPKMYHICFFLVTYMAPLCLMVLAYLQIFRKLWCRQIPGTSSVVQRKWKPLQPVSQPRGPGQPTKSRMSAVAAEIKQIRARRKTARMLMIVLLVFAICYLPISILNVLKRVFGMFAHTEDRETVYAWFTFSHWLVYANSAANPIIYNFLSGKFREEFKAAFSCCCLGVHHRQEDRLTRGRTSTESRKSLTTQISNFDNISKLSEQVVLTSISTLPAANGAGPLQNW
Assay: Intracellular calcium measurement (FLIPR Tetra), orexin receptor antagonistic activity, OX2
Format: cell-based
Settings: CHO cells expressing human orexin-2 receptor, 3 nM orexin-A, conditions B
endpoint: pIC50
Just the number, please; pIC50 means minus log10 of the concentration in mol/L.

Examples with answers:
>>> val("COc1cc(CCN(CC2CC2)C(=O)c2nc(N)sc2-c2cccc(C)c2)cc(OC)c1OC(C)C")
7.92
>>> val("COc1ccc(CCN(CC(=O)N(C)C)C(=O)c2nc(N)sc2-c2cccc(C)c2)cc1OC")
6.84
>>> val("CCN(CCc1ccc(OC)c(OC)c1)C(=O)c1nc(N)sc1-c1cccc(C)c1")
8.70
>>> val("COc1ccc2c(CCN(CC3CC3)C(=O)c3nc(N)sc3-c3cccc(C)c3)c[nH]c2c1")
7.77
>>> val("COc1ccc(CCN(CC2CC2)C(=O)c2nc(C)sc2-c2ccc(C)c(C)c2)cc1SC")
7.82

Next:
Requested read-out: pIC50. Entry: `COc1ccc(CCN(CC(F)(F)F)C(=O)c2nc(C)sc2-c2ccc(C)c(C)c2)cc1OC` 8.22
